Task for the reader: assign each of the following sequences its reported PBM binding z-score.
Tested on: THRa homodimer (NR concentration 90 nM)
Test: PBM binding z-score (relative to random genomic background probes); higher = stronger binding; sequences stand for … in GC…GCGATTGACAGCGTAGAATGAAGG
// no unit, no text: just the number

GET /value?item= `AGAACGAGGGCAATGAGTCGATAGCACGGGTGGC` &field=PBM binding z-score returns -0.542

Entry `TAGCCTAGGTCATGGGCCAGGATACCACGCGAAC` ; PBM binding z-score = 1.33

Quick note, PBM binding z-score for `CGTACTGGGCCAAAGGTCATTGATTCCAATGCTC` landed at 0.976

Item: `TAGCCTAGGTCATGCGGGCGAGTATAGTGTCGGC` | PBM binding z-score: 1.22

Lab book: PBM binding z-score of `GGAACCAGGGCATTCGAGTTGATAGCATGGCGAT` noted as 0.671

Entry under test: `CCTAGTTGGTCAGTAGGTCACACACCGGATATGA` . Its PBM binding z-score was 1.32

Kindly note the recorded PBM binding z-score for `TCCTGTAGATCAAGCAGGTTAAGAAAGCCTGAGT` , which is -0.566

The sequence listed as `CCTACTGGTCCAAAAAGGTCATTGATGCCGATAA` shows PBM binding z-score equal to 1.18

Lab note: `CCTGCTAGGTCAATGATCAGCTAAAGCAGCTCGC` gave PBM binding z-score of -0.185

The value of PBM binding z-score measured for the sequence `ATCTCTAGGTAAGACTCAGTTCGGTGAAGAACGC` turned out to be 0.697

Lab note: measured PBM binding z-score of `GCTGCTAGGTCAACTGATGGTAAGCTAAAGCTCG` was 0.776

The reported value for `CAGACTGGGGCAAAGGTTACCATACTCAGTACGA` in terms of PBM binding z-score is 0.0193

Just so you know, measured PBM binding z-score for `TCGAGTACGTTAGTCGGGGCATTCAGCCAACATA` came out at -0.507

PBM binding z-score measured on `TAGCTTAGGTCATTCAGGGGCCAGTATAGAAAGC` = 1.83

The reported value for `CGTCCAAGGTCATAGGAGGTTAGTGAAGACAGAT` in terms of PBM binding z-score is 3.13

PBM binding z-score for `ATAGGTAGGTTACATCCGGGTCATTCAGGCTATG` is 2.45

Quick note, PBM binding z-score for `CACACTAGGTCACCGGAAGGTCAAAGTCCGCATG` landed at 3.54

PBM binding z-score reported for this sequence `TTACCAAGGTGAGCTGAGGTCGTTGGTCCAACTC` : 2.2

The recorded PBM binding z-score for entry `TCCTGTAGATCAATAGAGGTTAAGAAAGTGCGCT` equals -0.00152

Value of PBM binding z-score reported for the sequence `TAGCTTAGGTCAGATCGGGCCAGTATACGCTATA` is 0.376

What the record says about `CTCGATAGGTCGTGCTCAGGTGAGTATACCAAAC` : PBM binding z-score is 0.582

Form: sequence = `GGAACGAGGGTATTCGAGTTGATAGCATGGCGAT` ; PBM binding z-score = -1.03

PBM binding z-score reading for `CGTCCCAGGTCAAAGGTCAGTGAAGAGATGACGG` : 2.8

Looking up `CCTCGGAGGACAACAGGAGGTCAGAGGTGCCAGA` , I see its PBM binding z-score listed as 0.822

The sequence identified as `ATCGAAAGGTCGAGGTAAGTATAGAGAAAGGGAA` registered its PBM binding z-score at 0.233

Briefly, PBM binding z-score measured for `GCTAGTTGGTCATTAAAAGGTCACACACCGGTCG` : 2.01

Entry `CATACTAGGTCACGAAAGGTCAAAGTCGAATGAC` , PBM binding z-score reported as 2.91

// PBM binding z-score value for `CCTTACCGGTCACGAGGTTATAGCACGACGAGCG` : 1.43

Lab note: measured PBM binding z-score of `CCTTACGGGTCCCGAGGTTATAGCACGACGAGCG` was 0.132

The value of PBM binding z-score measured for the sequence `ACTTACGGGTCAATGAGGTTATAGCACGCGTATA` turned out to be 1.57

Looking up `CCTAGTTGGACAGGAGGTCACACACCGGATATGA` , I see its PBM binding z-score listed as 2.18

For reference, reported PBM binding z-score for `GCTATTAGTTGAAAGGACAACCGAATGATTCTCG` stands at 0.292

According to the records, this sequence `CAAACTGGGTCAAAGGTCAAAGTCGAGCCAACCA` displays PBM binding z-score of 1.31

Reported PBM binding z-score for `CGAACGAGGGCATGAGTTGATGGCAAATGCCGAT` was -0.389

Notebook: `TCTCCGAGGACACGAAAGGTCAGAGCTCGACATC` , PBM binding z-score read as 2.74

Short answer for `ATCTCTAGGTAAAAGTTCATTGAATCCCGAGGAT` : PBM binding z-score was 0.281

According to the records, this sequence `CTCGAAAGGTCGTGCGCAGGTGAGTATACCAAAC` displays PBM binding z-score of 0.11

Kindly note the recorded PBM binding z-score for `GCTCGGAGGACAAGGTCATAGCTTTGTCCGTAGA` , which is 2.14

Sample `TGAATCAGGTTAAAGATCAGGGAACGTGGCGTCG` ; PBM binding z-score observed: -0.365

Cited source: the supplement of paper PMC6555819
